Assay: Pharmacokinetic comparison between equimolar doses of silybin and of 1:1 silybin-phosphatidylcholine complex in the rat, after oral administration
Settings: in vivo, po, 200 mg/kg
Endpoint name: concentration at 0.25 h (ng/mL)
Give just the numeric value; ng/mL need not be written.

*Q* Please give the measured concentration at 0.25 h for this molecule: COc1cc(C2Oc3cc([C@H]4Oc5cc(O)cc(O)c5C(=O)[C@@H]4O)ccc3OC2CO)ccc1O (stereo partly shown)
*A* 70

----------
Assay: Pharmacokinetic comparison between equimolar doses of silybin and of 1:1 silybin-phosphatidylcholine complex in the rat, after oral administration
Details: in vivo, po, 200 mg/kg
Endpoint name: concentration at 2 h (ng/mL)
Give just the numeric value; ng/mL need not be written.

*Q* Please give the measured concentration at 2 h for this compound: COc1cc(C2Oc3cc([C@H]4Oc5cc(O)cc(O)c5C(=O)[C@@H]4O)ccc3OC2CO)ccc1O (stereo partly shown)
*A* 50

----------
Test: Pharmacokinetic comparison between equimolar doses of silybin and of 1:1 silybin-phosphatidylcholine complex in the rat, after oral administration
Conditions: in vivo, po, 200 mg/kg
Endpoint name: concentration at 1 h

*Q* Please give the measured concentration at 1 h for this compound: COc1cc(C2Oc3cc([C@H]4Oc5cc(O)cc(O)c5C(=O)[C@@H]4O)ccc3OC2CO)ccc1O (stereo partly shown)
*A* 110 ng/mL

meta.source: patent US4764508A
